Hey, just so you know, these numbers are from PubChem BioAssay (NCATS).

Experiment: qHTS Assay for Identifying Gametocytocidal Compounds (AID 743244);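 note: % is set by controls: 0 for no effect and ±100 for the full control effect; actives lower the fluorescent signal which means gametocytes are killed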
Settings: P. falciparum 3D7 stage III-V gametocytes, alamarBlue, 72 h; stronger effect = lower value
Records with an inconclusive call do not appear.
Recorded max response for the following compounds
Recorded metric: max response (%)

[[record]]
smiles_record = "Oc1ccc(Cl)cc1Sc1cc(Cl)ccc1O"
recorded_metric = "max response"
measurement_units = "%"
assay_value = 6.07

[[record]]
smiles_record = "C[C@H](O)C(=O)Nc1c(I)c(C(=O)NC(CO)CO)c(I)c(C(=O)NC(CO)CO)c1I"
recorded_metric = "max response"
measurement_units = "%"
assay_value = 9.34

[[record]]
smiles_record = "Oc1c(Cl)cc(Cl)cc1Sc1cc(Cl)cc(Cl)c1O"
recorded_metric = "max response"
measurement_units = "%"
assay_value = 20.1

[[record]]
smiles_record = "Nc1ccc(C(=O)O)cc1"
recorded_metric = "max response"
measurement_units = "%"
assay_value = -1.31

[[record]]
smiles_record = "O=C(OCCOCCO)c1ccccc1Nc1cccc(C(F)(F)F)c1"
recorded_metric = "max response"
measurement_units = "%"
assay_value = 12.2

[[record]]
smiles_record = "O=C(Nc1ccc(Cl)c(Cl)c1)C1CC1"
recorded_metric = "max response"
measurement_units = "%"
assay_value = 14

[[record]]
smiles_record = "C[C@]12CC[C@@H]3c4ccc(O)cc4CC[C@H]3[C@@H]1C[C@@H](O)[C@@H]2O"
recorded_metric = "max response"
measurement_units = "%"
assay_value = 5.6

[[record]]
smiles_record = "CC(=O)Oc1ccc(C(=C2CCCCC2)c2ccc(OC(C)=O)cc2)cc1"
recorded_metric = "max response"
measurement_units = "%"
assay_value = 9.87

[[record]]
smiles_record = "CCN1CCCC1=O"
recorded_metric = "max response"
measurement_units = "%"
assay_value = 5.59

[[record]]
smiles_record = "Cc1ncc(CSSCc2cnc(C)c(O)c2CO)c(CO)c1O"
recorded_metric = "max response"
measurement_units = "%"
assay_value = -2.24

[[record]]
smiles_record = "CC(=O)OCC(=O)[C@@]12OC(C)(C)O[C@@H]1C[C@H]1[C@@H]3C[C@H](F)C4=CC(=O)C=C[C@]4(C)[C@@]3(F)[C@@H](O)C[C@@]12C"
recorded_metric = "max response"
measurement_units = "%"
assay_value = 1.24

